Data provenance is patent US20170008955A1.

Target: T1, cSNK:BSA conjugate (bovine, head-to-tail cyclized; conjugated to BSA carrier)
T1 construct: also called BSA-cSNK
T1 sequence (P02769 25-607 limits assumed): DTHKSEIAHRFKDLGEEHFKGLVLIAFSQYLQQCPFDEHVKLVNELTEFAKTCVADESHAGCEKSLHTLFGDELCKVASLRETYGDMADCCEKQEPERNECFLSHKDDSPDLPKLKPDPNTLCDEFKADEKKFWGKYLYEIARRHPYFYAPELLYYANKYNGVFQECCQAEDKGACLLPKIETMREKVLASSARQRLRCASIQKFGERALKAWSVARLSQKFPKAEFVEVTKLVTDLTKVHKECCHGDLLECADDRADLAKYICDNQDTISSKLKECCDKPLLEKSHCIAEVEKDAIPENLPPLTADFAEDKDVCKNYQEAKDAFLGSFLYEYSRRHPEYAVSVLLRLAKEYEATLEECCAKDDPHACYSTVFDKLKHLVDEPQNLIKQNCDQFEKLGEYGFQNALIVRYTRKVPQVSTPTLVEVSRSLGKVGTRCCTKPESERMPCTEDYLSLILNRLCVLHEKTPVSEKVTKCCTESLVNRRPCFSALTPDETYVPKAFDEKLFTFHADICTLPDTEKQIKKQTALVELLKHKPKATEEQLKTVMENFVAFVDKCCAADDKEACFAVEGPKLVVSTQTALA
Experiment: BLI (Octet), KD1
Measured pKd of individual entries
// scale note: pKd = -log10(conc_M); give the bare number

- binder: "5E3HCDR1-S184D (antibody, V domains shown, hu5E3 IgG1 vector mutant; also called 5E3-S184D-AFF) VH: QVQLQQSGPEVKKPGASVKISCKASGYIFTDYYIQWVIHAPGQGLEWIGWIYPGNVNTKYNEKFKGKATLTADKSSSTAYMELSSLTSEDTAVYFCARMDYEAHYWGQGTTVTVSS VL: DIQMTQSPSSLSASVGDRVTITCRASQEISGYLTWLQQKPEGAIKRLIYAASTLDSGVPKRFSGSRSGSDYSLTISSLQPEDFATYNCLQYANYPRTFGGGTKLEIK"
  pKd: 9.67

Please look at the following binder next.
Asked: Look up pKd of 5E3HCDR3-A210G (antibody, IgG1, V domains shown, hu5E3 IgG1 vector mutant) VH: QVQLQQSGPEVKKPGASVKISCKASGYIFTSYYIQWVIHAPGQGLEWIGWIYPGNVNTKYNEKFKGKATLTADKSSSTAYMELSSLTSEDTAVYFCARMDYEGHYWGQGTTVTVSS VL: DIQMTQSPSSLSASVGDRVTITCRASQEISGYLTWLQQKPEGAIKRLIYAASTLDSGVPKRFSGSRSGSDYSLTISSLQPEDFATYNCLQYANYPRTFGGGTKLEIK and report it.
Given back: 8.76
